All values here come from patent US20120245344A1.

- system: human GPR119 (Homo sapiens, UniProt Q8TDV5)
- Construct: expressed in transfected cells; host or cells: Flp-in T-Rex-293 cells (Invitrogen #R78007), plasmid pcDNA5/FRT/TO, expression induced with tetracycline
- Sequence (Q8TDV5 whole entry): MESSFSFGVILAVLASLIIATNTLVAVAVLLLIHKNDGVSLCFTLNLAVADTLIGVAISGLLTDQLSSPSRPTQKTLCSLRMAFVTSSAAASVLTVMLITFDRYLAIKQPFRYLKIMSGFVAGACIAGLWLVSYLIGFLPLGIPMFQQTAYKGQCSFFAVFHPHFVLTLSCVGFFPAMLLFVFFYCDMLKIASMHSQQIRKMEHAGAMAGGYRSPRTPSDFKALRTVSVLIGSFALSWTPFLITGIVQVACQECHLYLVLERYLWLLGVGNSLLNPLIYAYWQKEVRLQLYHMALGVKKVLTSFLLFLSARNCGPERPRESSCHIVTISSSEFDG
- testName: Measurement of intracellular cAMP in stable cell line expressing human GPR119 (GPR119 agonist effect)
- Format: cell-based
- conditionSummary: increase of intracellular cAMP, Flp-in T-Rex-293 cells expressing human GPR119, 37° C. for 30 minutes
attributeMeasured: EC50

input: Specify measured EC50 for CC(C)(C)OC(=O)N1CCC(c2ccc(Cn3ccc4cc(S(C)(=O)=O)ccc43)nc2)C(C)(C)C1 (stereo not drawn) .
output: 111 nM

input: Specify measured EC50 for Cc1cc(C2CCN(C(=O)OC(C)C)CC2)cnc1Cn1ccc2cc(-n3cncn3)ccc21 .
output: 104 nM

input: Specify measured EC50 for CC(C)(C)OC(=O)N1CCCC(c2ccc(Cn3ccc4cc(S(C)(=O)=O)ccc43)nc2)CC1 (stereo not drawn) .
output: 115 nM

input: Specify measured EC50 for Cc1nc(S(C)(=O)=O)cc2ccn(Cc3ccc(C4CCN(C(=O)OC(C)(C)C)CC4)cn3)c12 .
output: 82.1 nM

input: Specify measured EC50 for CC1CN(C(=O)OC(C)(C)C)CC=C1c1ccc(Cn2ccc3c(F)c(S(C)(=O)=O)c(F)cc32)nc1 (stereo not drawn) .
output: 65.2 nM

input: Specify measured EC50 for C[C@H]1C=C(c2ccc(Cn3ccc4cc(S(C)(=O)=O)ccc43)nc2)C[C@H](C)N1C(=O)OC(C)(C)C .
output: 96.8 nM
